Listed below: IC50 values for each entry.
# Assay target: purified recombinant HIV-1 reverse transcriptase (Human immunodeficiency virus type 1 group M subtype B)
# Construct: purified recombinant HIV-1 reverse transcriptase (RT, EC, 2.7.7.49)
# Method summary: Inhibition of HIV-1 reverse transcriptase enzyme ([3H]-SPA or flashplate assay)
# Measurement setup: recombinant RT expressed in Escherichia Coli; Poly(rA)-oligo(dT) [3H]-SPA or [3H]-flashplate assay; 5% final DMSO; read-out: IC50 (concentration at which the compound inhibited the reverse transcriptase by 50%)
Give the number; µM is assumed, so skip it.

Data request: Fill in the blank: the reported IC50 of `CCc1nn(C2CNC2)c(CC)c1Oc1cc(Cl)cc(Cl)c1` is ____.
Data returned: 0.248

***
Data request: Fill in the blank: the reported IC50 of `CCc1nn(CCO)c(CC)c1Oc1c(C)cc(C#N)cc1C` is ____.
Data returned: 3.2

Data request: Then what about the molecule `CCc1nn(Cc2cc(=O)[nH]c(N)n2)c(CC)c1Oc1cc(Cl)cc(Cl)c1` ?
Data returned: 39
